- Organism: Oryctolagus cuniculus
- ASSAY NOTES: In vitro functional antagonism was determined by ability of a single concentration of compound to block AII induced contractions in rabbit aortic smooth muscle strip
- RECORDED CONDITIONS: Aorta
I'd be grateful if you could share measured Kb for these entries.
Numbers only, in nM.

These solved cases illustrate the format of a correct answer.
1) O=C(O)c1c(Oc2ccc(-c3ccccc3-c3nnn[nH]3)cc2)c(C2CC2)nc2cccnc12 | 0.67
2) O=C(O)c1cccc2nc(C3CC3)c(Oc3ccc(-c4ccccc4-c4nn[nH]n4)cc3)c(C(=O)O)c12 | 2

Okay, now this molecule:
Request: // lookup Kb for O=C(O)c1c(Oc2ccc(-c3ccccc3-c3nnn[nH]3)cc2)c(C2CC2)nc2ncccc12
Result: 0.76

---

- Species on record: Oryctolagus cuniculus
- ASSAY NOTES: In vitro functional antagonism was determined by ability of a single concentration of compound to block AII induced contractions in rabbit aortic smooth muscle strip
- RECORDED CONDITIONS: Aorta
Label n if Kb falls below 0.2 nM; label y in every other case.

Some solved entries appear below for comparison.
1) Cc1cccc2nc(C3CC3)c(Oc3ccc(-c4ccccc4-c4nnn[nH]4)cc3)c(C(=O)O)c12 | y
2) CCc1nc2ccccc2c(C(=O)O)c1Oc1ccc(-c2ccccc2-c2nn[nH]n2)cc1 | n
3) CCCc1nc2ccccc2c(C(=O)O)c1Oc1ccc(-c2ccccc2-c2nnn[nH]2)cc1 | n
4) O=C(O)c1c(Oc2ccc(-c3ccccc3-c3nnn[nH]3)cc2)c(C2CC2)nc2ccc(F)cc12 | y
5) Cc1nc2ccccc2c(C(=O)O)c1Oc1ccc(-c2ccccc2-c2nn[nH]n2)cc1 | y

Request: Could you verify whether the entry Cc1cccc2c(C(=O)O)c(Oc3ccc(-c4ccccc4-c4nnn[nH]4)cc3)c(C3CC3)nc12 shows Kb of no less than 0.2 nM?
Result: y

Request: Follow-up item: O=C(O)c1c(Oc2ccc(-c3ccccc3-c3nn[nH]n3)cc2)c(C2CC2)nc2ccccc12
Result: n

Request: Follow-up item: O=C(O)c1c(Oc2ccc(-c3ccccc3-c3nn[nH]n3)cc2)c(C2CC2)nc2cc(Cl)ccc12
Result: n

---

I'd be grateful if you could share measured pKi for these entries.
- SYSTEM: UniProt P29089
- Sequence (P29089 whole entry): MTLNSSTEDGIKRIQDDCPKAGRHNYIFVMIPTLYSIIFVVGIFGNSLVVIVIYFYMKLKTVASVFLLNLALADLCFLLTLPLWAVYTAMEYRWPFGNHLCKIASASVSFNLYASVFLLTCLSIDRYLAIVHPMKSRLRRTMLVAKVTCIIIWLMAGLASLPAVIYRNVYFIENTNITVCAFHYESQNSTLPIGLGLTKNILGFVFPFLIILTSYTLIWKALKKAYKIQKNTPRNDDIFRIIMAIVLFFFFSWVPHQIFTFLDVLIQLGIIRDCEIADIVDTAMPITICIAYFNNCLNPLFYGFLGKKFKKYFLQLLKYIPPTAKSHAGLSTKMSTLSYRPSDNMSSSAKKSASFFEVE
Give bare numbers, as −log10 of the molar value.

1. O=C(O)c1c(Oc2ccc(-c3ccccc3-c3nnn[nH]3)cc2)c(C2CC2)nc2ccc(F)cc12 | 7.85
2. COc1ccc2nc(C3CC3)c(Oc3ccc(-c4ccccc4-c4nn[nH]n4)cc3)c(C(=O)O)c2c1 | 7.48
3. O=C(O)c1c(Oc2ccc(-c3ccccc3-c3nnn[nH]3)cc2)c(C2CC2)nc2cccnc12 | 8.68

Okay, now this compound:
Request: // lookup pKi for O=C(O)c1cccc2nc(C3CC3)c(Oc3ccc(-c4ccccc4-c4nn[nH]n4)cc3)c(C(=O)O)c12
Result: 6.92

Data origin: ChEMBL document CHEMBL1127718
